# Experiment Description: NCI Yeast Anticancer Drug Screen. Data for the bub3 strain (AID 167)
# Setup Conditions: S. cerevisiae bub3 mutant strain, at 50.0 µM
Compounds without any hit were thinned out: in the full panel of roughly 79,000, 15% have a hit. Calls of active or inactive are those of the source. No stated cut-off is given here; in the data, active means growth inhibition above about 70%; inactive means the rest.
Response enum: active, inactive

Solved cases below.
INSERT INTO results (compound, discrete_label) VALUES
  ('CCC(C)C(=O)OCC1(c2ccc(C)cc2OC(=O)C(C)C)CO1 (stereo not drawn)', 'inactive'),
  ('O=[N+]([O-])c1ccc(/C([O-])=C(\C(=S)Nc2ccccc2Cl)[n+]2ccccc2)cc1', 'inactive'),
  ('CCN1/C(=C/C=C/C=C/c2oc3ccccc3[n+]2CC)Oc2ccccc21', 'inactive'),
  ('Nc1ccc2ccsc2c1', 'inactive'),
  ('O=c1cc(C=Nc2ccc(-c3csc(-c4ccccc4)n3)cc2)[nH]c(=S)[nH]1', 'active'),
  ('CCCCCCCCCCCCNc1ncnc2c1cnn2C', 'inactive'),
  ('NCc1cnccn1', 'inactive'),
  ('CCOC(=O)C1C(c2ccccc2)ON(c2ccccc2)C1c1cccc([N+](=O)[O-])c1 (stereo not drawn)', 'inactive');

// return assay outcome for CCN(CC)C(C)(C)C(=O)/C=C/c1ccc(C)cc1
inactive

// return assay outcome for Cc1ccccc1C(=O)N1CCOCC1
inactive

// return assay outcome for COC(=O)CC1C=CC(OC)[C@@]2(C)C(=O)C=C(C)C(=O)[C@@H]12 (stereo partly drawn)
inactive

// return assay outcome for CC(=O)Nc1cc2cc(N=CN(C)C)ccc2oc1=O
inactive

// return assay outcome for Nc1cccc(CC(=O)c2ccccc2)n1
inactive

// return assay outcome for O=C(O)CCc1ccc(NC(=O)CCl)cc1
inactive

// return assay outcome for NC(=O)NNc1ccccc1
inactive

// return assay outcome for Cc1ccc(S(=O)(=O)C23N=NC(C)(C)C2N=NC3(C)C)cc1 (stereo not drawn)
inactive

---

Form field: growth inhibition (one value per entry).
# Experiment Description: NCI Yeast Anticancer Drug Screen. Data for the rad50 strain (AID 155);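 further: 0% = growth of vehicle-only cultures of the same strain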
# Setup Conditions: S. cerevisiae rad50 strain growth inhibition; at 50.0 µM; hits give high values
Compounds without any hit were thinned out: in the full panel of roughly 79,000, 15% have a hit.
Kindly answer with a numeric value in %, unit omitted.

INSERT INTO assay_data (compound, readout, readout_value) VALUES
  ('Oc1c(Cl)cc(N=Cc2ccc(N(CCCCl)CCCCl)cc2)cc1Cl', 'growth inhibition', 92.6);

// recorded growth inhibition for COc1ccc(NC=O)c(C)c1 : -10.5

// recorded growth inhibition for CNC(=O)C(c1ccccc1)C(O)c1ccccc1 (configuration not stated) : 10.8

// recorded growth inhibition for Cc1ccc2ccccc2c1CC(=O)O : 28.8

// recorded growth inhibition for O=C(O)CCBr : 8.1

// recorded growth inhibition for O=c1[nH][nH]c(=O)c(Cl)c1Cl : 1.55

// recorded growth inhibition for CCOCC(=O)N[C@H]1CCc2cc(OC)c(OC)c(OC)c2-c2ccc(SC)c(=O)cc21 : 10.7

---

# Experiment Description: NCI Yeast Anticancer Drug Screen. Data for the mec2-1 strain (AID 157)
# Setup Conditions: S. cerevisiae mec2-1 strain, at 50.0 µM
About 79,000 compounds went through this panel and 15% of them were active in at least one assay; those are over-represented in the sample as a whole. The source made the active and inactive calls. Cut-off read from the data, not from the text of the source: active = growth inhibition above about 70%; inactive = the rest.
Response enum: active, inactive

Solved cases below.
INSERT INTO assay_data (compound, discrete_label) VALUES
  ('CC1(C)CNC[C@](C)(OCCCO[C@@]2(C)CNCC(C)(C)NC2=O)C(=O)N1', 'inactive'),
  ('CC1=CC(=O)CC(C(C)C)C1 (stereo not given)', 'inactive'),
  ('O=C(NC1CCCCC1NC(c1ccccc1)(c1ccccc1)c1ccccc1)C(=O)NC1CCCCC1NC(c1ccccc1)(c1ccccc1)c1ccccc1 (stereo not given)', 'inactive');

// return assay outcome for COc1ccc(N2C(=O)CCC2=S)cc1
inactive

// return assay outcome for CCC(N)CS(=O)(=O)O (stereo not given)
inactive

// return assay outcome for ClCC/C(=C(/Cl)c1ccccc1)c1ccccc1
inactive

// return assay outcome for Oc1cc(-n2cccn2)c(O)cc1-n1cccn1
inactive

// return assay outcome for COC(=O)N/N=C(/c1nc2ccc([N+](=O)[O-])cc2[nH]c1=O)C(O)c1ccc(OC)c(OC)c1 (stereo not given)
inactive

// return assay outcome for COC(=O)c1cccc(C)c1C(=O)c1ccc(C)cc1C
inactive

// return assay outcome for CC1=C(CCC(C)CO)O[C@H]2C[C@H]3[C@@H]4CC[C@H]5C[C@@H](O)CC[C@]5(C)[C@H]4CC(=O)[C@]3(C)[C@@H]12 (stereo not given in full)
inactive

// return assay outcome for O=C1SCC(O)=C1/C=N/Nc1nc2ccccc2o1
inactive

// return assay outcome for C=C(C)[C@@H]1CC[C@@H]2C(=CC[C@]3(C)C([C@H](C)CC/C=C(/C)C(=O)O)CC[C@@]23C)[C@@]1(C)CCC(=O)O (stereo not given in full)
inactive

// return assay outcome for O=C(OCc1ccccc1CN1CCOCC1)c1ccc(Cl)cc1
inactive
